biological target: hBTK (recombinant full-length BTK) (Homo sapiens (Human), UniProt Q06187); experiment: BTK enzymatic activity, LANCE TR-FRET assay; conditions: 50 pM hBTK, 2 μM biotin-A5-peptide, 25 μM ATP; 60 minute compound & enzyme incubation
Sequence (Q06187 whole entry): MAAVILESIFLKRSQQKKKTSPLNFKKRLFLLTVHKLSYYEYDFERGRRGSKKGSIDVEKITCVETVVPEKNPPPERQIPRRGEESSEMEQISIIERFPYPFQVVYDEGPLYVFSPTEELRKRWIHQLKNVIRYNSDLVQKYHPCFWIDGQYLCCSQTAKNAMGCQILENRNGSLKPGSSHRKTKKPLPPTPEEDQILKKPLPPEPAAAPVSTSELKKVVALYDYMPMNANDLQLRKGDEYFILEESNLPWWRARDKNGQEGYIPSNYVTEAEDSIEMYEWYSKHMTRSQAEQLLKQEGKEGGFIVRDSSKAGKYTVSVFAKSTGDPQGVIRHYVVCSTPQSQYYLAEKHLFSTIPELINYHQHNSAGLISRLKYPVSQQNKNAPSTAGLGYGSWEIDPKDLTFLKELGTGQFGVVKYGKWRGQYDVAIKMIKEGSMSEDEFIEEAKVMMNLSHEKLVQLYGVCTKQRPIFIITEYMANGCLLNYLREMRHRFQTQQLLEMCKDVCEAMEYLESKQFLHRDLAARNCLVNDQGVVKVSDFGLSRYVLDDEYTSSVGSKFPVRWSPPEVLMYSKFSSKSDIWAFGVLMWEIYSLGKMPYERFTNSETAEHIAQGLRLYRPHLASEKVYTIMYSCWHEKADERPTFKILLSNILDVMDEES
measured endpoint: IC50 (nM)

In [3]: df
Out[3]:
                                   molecule                             tested_target  measured_endpoint  numeric_value
0  CN1CC[C@H]2CC[C@H](c3nc(-c4ccc(C(=O)Nc5cc(C(F)(F)F)ccn5)cc4)c4c(N)nccn34)CN2C1=O  hBTK (recombinant full-length BTK) (Homo sapiens (Human), UniProt Q06187)               IC50              3

P: Nc1nccn2c([C@H]3CC[C@H]4C[C@@H](O)C(=O)N4C3)nc(-c3ccc(C(=O)Nc4cc(C(F)(F)F)ccn4)cc3)c12
Q: Nc1nccn2c([C@@H]3CC[C@@H]4C[C@H](O)C(=O)N4C3)nc(-c3ccc(C(=O)Nc4cc(C(F)(F)F)ccn4)cc3)c12
R: CN1CC[C@@H]2CC[C@@H](c3nc(-c4ccc(C(=O)Nc5cc(C(F)(F)F)ccn5)cc4)c4c(N)nccn34)CN2C1=O
S: COCCOc1cc(C(=O)Nc2cccc(C(F)(F)F)c2)ccc1-c1nc([C@@H]2CC[C@H]3CCC(=O)N3C2)n2ccnc(N)c12
IN: Please list the entries, largest IC50 first. // list labels; follow requested order
OUT: P, S, Q, R

Provenance of the data: patent US9481682B2
